The measurements presented in this section are drawn from patent US20250154141A1.

System: human platelets
Experiment: Platelet toxicity assay (MTS viability)
Format: cell-based
Settings: Table 6; ratio of platelet IC50 to MOLT-4 IC50

compound | Platelets/MOLT-4 IC50 Fold change
Cc1ncsc1-c1ccc([C@H](C)NC(=O)[C@@H]2C[C@@H](O)CN2C(=O)[C@@H](NC(=O)CCCCCCC(=O)N2CCN(C[C@]3(C)CCC(c4ccc(Cl)cc4)=C(CN4CCN(c5ccc(C(=O)NS(=O)(=O)c6ccc(N[C@H](CCN7C[C@H]8C[C@@H]7CO8)CSc7ccccc7)c(S(=O)(=O)C(F)(F)F)c6)cc5)CC4)C3)CC2)C(C)(C)C)cc1 [Compound 66] | 370
Cc1ncsc1-c1ccc([C@H](C)NC(=O)[C@@H]2C[C@@H](O)CN2C(=O)[C@@H](NC(=O)CN2CCN(CC(=O)N3CCN(CC4(C)CCC(c5ccc(Cl)cc5)=C(CN5CCN(c6ccc(C(=O)NS(=O)(=O)c7ccc(N[C@H](CCN8C[C@H]9C[C@@H]8CO9)CSc8ccccc8)c(S(=O)(=O)C(F)(F)F)c7)cc6)CC5)C4)CC3)CC2)C(C)(C)C)cc1 (stereo partly shown) [Compound 68] | 240
CC1(C)CCC(c2ccc(Cl)cc2)=C(CN2CCN(c3ccc(C(=O)NS(=O)(=O)c4ccc(N[C@H](CCN5CCOCC5)CSc5ccccc5)c(S(=O)(=O)C(F)(F)F)c4)cc3)CC2)C1 [ABT-263, navitoclax, reference compound] | 1
Cc1ncsc1-c1ccc([C@H](C)NC(=O)[C@@H]2C[C@@H](O)CN2C(=O)[C@@H](NC(=O)CCCCCCC(=O)N2CCN(CC3(C)CCC(c4ccc(Cl)cc4)=C(CN4CCN(c5ccc(C(=O)NS(=O)(=O)c6ccc(N[C@H](CCN7C[C@H]8C[C@@H]7CO8)CSc7ccccc7)c(S(=O)(=O)C(F)(F)F)c6)cc5)CC4)C3)CC2)C(C)(C)C)cc1 (stereo partly shown) [Compound 65] | 711
